System: diaphorase
Experiment: fluorescently labeled diaphorase binding to peptide array with or without excess FAD
Details: ratio of binding without FAD to binding with FAD, 10 micromolar diaphorase
Method: Measurements were performed in which diaphorase was bound to an array of about 126,000 unique sequences. The sequences were chosen simply to cover sequence space. 16 of the natural 20 amino acids were used to make up these sequences with C, I, M and T omitted. The diaphorase was fluorescently labeled and each peptide sequence feature was scanned and fluorescence recorded on the array. Diaphorase bound tightly to some peptides and not at all to others. […]
metric: 10 microM noFAD/FAD
Reply briefly: the number, and no unit.

stdin: Which value of 10 microM noFAD/FAD has been reported for RFGQNLPLGGSG [array peptide with C-terminal GSG linker] in the records?
stdout: 1.829

stdin: Requested field: 10 microM noFAD/FAD. Item: PRSFGYNNVGGSG [array peptide with C-terminal GSG linker]
stdout: 1.618

###

We begin with a simple list: items and their reported 1 microM FAD (array fluorescence of bound diaphorase).
Tested on: diaphorase
Assay: fluorescently labeled diaphorase binding to peptide array with or without excess FAD
Settings: 1 micromolar labeled diaphorase, excess FAD present; 65535 is detector saturation
API doc: respond with a numeric literal and nothing else, no unit.

stdin: Reported 1 microM FAD (array fluorescence of bound diaphorase), sequence LLGFLGGSG [array peptide with C-terminal GSG linker] : ____
stdout: 4143.5

stdin: For the sequence PRSFGYNNVGGSG [array peptide with C-terminal GSG linker] , what 1 microM FAD (array fluorescence of bound diaphorase) is on record?
stdout: 2525.5

stdin: Look at this sequence and give its reported 1 microM FAD (array fluorescence of bound diaphorase). AQVAVDGFYVDGSG [array peptide with C-terminal GSG linker]
stdout: 3089

stdin: Which value of 1 microM FAD (array fluorescence of bound diaphorase) has been reported for VVQALFDGSG [array peptide with C-terminal GSG linker] in the records?
stdout: 2304.25

Data origin: patent US20190064177A1
